# Species: Rattus norvegicus
# TEST_PROTOCOL: DrugMatrix - Regimen: Daily Repeat
# Assay type: toxicity, organism-based, Sprague-Dawley
# Set-up: regimen Daily Repeat, gender Male, age 6-8 weeks
# CONDITION_SUMMARY: in vivo, po, 2000 mg/kg, 72 h, tissue Plasma, route oral GAVAGE, dose level High, time 3 day, vehicle .5 % CMC
MEASURED_PROPERTY: LIPASE (u/L)
State just the number; it will be interpreted in u/L.

Lookup: Consider the molecule shown here: CN/C(=N/CCSCc1nc[nH]c1C)NC#N [CIMETIDINE] What is its recorded LIPASE?
Found: 17

Lookup: Consider the molecule shown here: COc1cc2nc(N3CCN(C(=O)c4ccco4)CC3)nc(N)c2cc1OC [PRAZOSIN] What is its recorded LIPASE?
Found: 9.67

Lookup: Consider the molecule shown here: CC1(C)S[C@@H]2[C@H](NC(=O)[C@H](N)c3ccccc3)C(=O)N2[C@H]1C(=O)O [AMPICILLIN] What is its recorded LIPASE?
Found: 9.67

Lookup: Consider the molecule shown here: O=C1Nc2ccc(Cl)cc2C(c2ccccc2Cl)=NC1O (centres undefined) [LORAZEPAM] What is its recorded LIPASE?
Found: 16.67

###

# Species: Rattus norvegicus
# TEST_PROTOCOL: DrugMatrix - Regimen: Daily Repeat
# Type: toxicity, organism-based, Sprague-Dawley
# Design: regimen Daily Repeat, gender Male, age 6-8 weeks
# CONDITION_SUMMARY: in vivo, po, 20 mg/kg, 120 h, tissue Blood, route oral GAVAGE, dose level Low, time 5 day, vehicle .5 % CMC
MEASURED_PROPERTY: ABSOLUTE BASOPHIL (cells/µL)
State just the number; it will be interpreted in cells/µL.

Lookup: Consider the compound shown here: CC(C(=O)O)c1ccc2oc(-c3ccc(Cl)cc3)nc2c1 (stereo unspecified) [BENOXAPROFEN] What is its recorded ABSOLUTE BASOPHIL?
Found: 56.7

###

What NUCLEATED RED BLOOD CELLS was measured for each of the following?
# Species: Rattus norvegicus
# TEST_PROTOCOL: DrugMatrix - Regimen: Daily Repeat
# Format: toxicity, organism-based, Sprague-Dawley
# Set-up: regimen Daily Repeat, gender Male, age 6-8 weeks
# CONDITION_SUMMARY: in vivo, po, 0 mg/kg, 120 h, tissue Blood, route oral GAVAGE, dose level Control, time 5 day, […]

Lookup: Consider the compound shown here: CC(C)(C)NC(=O)[C@H]1CC[C@H]2[C@@H]3CC[C@H]4NC(=O)C=C[C@]4(C)[C@H]3CC[C@]12C [FINASTERIDE] What is its recorded NUCLEATED RED BLOOD CELLS?
Found: 0 /100WBC

Lookup: Consider the compound shown here: Clc1ccc(COC(Cn2ccnc2)c2ccc(Cl)cc2Cl)cc1 (centres undefined) What is its recorded NUCLEATED RED BLOOD CELLS?
Found: 0.33 /100WBC

Lookup: Consider the compound shown here: COc1cc(N)c(Cl)cc1C(=O)NC1CCN(CCCOc2ccc(F)cc2)CC1OC (centres undefined) [CISAPRIDE] What is its recorded NUCLEATED RED BLOOD CELLS?
Found: 0 /100WBC

Lookup: Consider the compound shown here: CO[C@H]1/C=C/O[C@@]2(C)Oc3c(C)c(O)c4c(O)c(c(/C=N/N5CCN(C6CCCC6)CC5)c(O)c4c3C2=O)NC(=O)/C(C)=C\C=C\[C@H](C)[C@H](O)[C@@H](C)[C@@H](O)[C@@H](C)[C@H](OC(C)=O)[C@@H]1C What is its recorded NUCLEATED RED BLOOD CELLS?
Found: 0.17 /100WBC

###

# Species: Rattus norvegicus
# TEST_PROTOCOL: DrugMatrix - Regimen: Daily Repeat
# Assay type: toxicity, organism-based, Sprague-Dawley
# Set-up: regimen Daily Repeat, gender Male, age 6-8 weeks
# CONDITION_SUMMARY: in vivo, sc, 0 mg/kg, 72 h, tissue Blood, route subcutaneous, dose level Control, time 3 day, […]
What ABSOLUTE LYMPHOCYTE was measured for each of the following?

Lookup: Consider the compound shown here: Oc1c(Cl)cc(Cl)c(Cl)c1Cc1c(O)c(Cl)cc(Cl)c1Cl What is its recorded ABSOLUTE LYMPHOCYTE?
Found: 12247.5 CELLS/uL

Lookup: Consider the compound shown here: CC(C)(C)CC(C)(C)c1ccc(OCCOCC[N+](C)(C)Cc2ccccc2)cc1.[Cl-] [BENZETHONIUM CHLORIDE] What is its recorded ABSOLUTE LYMPHOCYTE?
Found: 12247.5 CELLS/uL

Lookup: Consider the compound shown here: CCN(CC)CCOCCC1=CCC2CC1C2(C)C (stereo not given) What is its recorded ABSOLUTE LYMPHOCYTE?
Found: 10887 CELLS/uL

Lookup: Consider the compound shown here: O=C(Nc1ccc(Br)cc1)c1cc(Br)cc(Br)c1O What is its recorded ABSOLUTE LYMPHOCYTE?
Found: 10202 CELLS/uL

Lookup: Consider the compound shown here: CCC(=O)O[C@]1(C(=O)CCl)[C@@H](C)C[C@H]2[C@@H]3CCC4=CC(=O)C=C[C@]4(C)[C@@]3(F)[C@@H](O)C[C@@]21C [CLOBETASOL PROPIONATE] What is its recorded ABSOLUTE LYMPHOCYTE?
Found: 10202 CELLS/uL

###

What GLUCOSE was measured for each of the following?
# Organism: Rattus norvegicus
# TEST_PROTOCOL: DrugMatrix - Regimen: Daily Repeat
# Type: toxicity, organism-based, Sprague-Dawley
# Set-up: regimen Daily Repeat, gender Male, age 6-8 weeks
# CONDITION_SUMMARY: in vivo, po, 0 mg/kg, 72 h, tissue Plasma, route oral GAVAGE, dose level Control, time 3 day, vehicle .5 % CMC
State just the number; it will be interpreted in mg/dL.

Lookup: Consider the compound shown here: O=C1CN=C(c2ccccc2Cl)c2cc([N+](=O)[O-])ccc2N1 What is its recorded GLUCOSE?
Found: 171.5

Lookup: Consider the compound shown here: CNCCC(Oc1ccc(C(F)(F)F)cc1)c1ccccc1 (centres undefined) What is its recorded GLUCOSE?
Found: 173.5

Lookup: Consider the compound shown here: CN(C)[C@@H]1C(O)=C(C(N)=O)C(=O)[C@@]2(O)C(O)=C3C(=O)c4c(O)ccc(Cl)c4[C@@](C)(O)[C@H]3C[C@@H]12 What is its recorded GLUCOSE?
Found: 160.67

Lookup: Consider the compound shown here: NCCCC(O)(P(=O)(O)O)P(=O)(O)O What is its recorded GLUCOSE?
Found: 192.67

Lookup: Consider the compound shown here: NC1CCN(c2nc3c(cc2F)c(=O)c(C(=O)O)cn3-c2ccc(F)cc2F)C1 (centres undefined) What is its recorded GLUCOSE?
Found: 172.5

Lookup: Consider the compound shown here: CC(=O)Oc1ccc(C(c2ccc(OC(C)=O)cc2)c2ccccn2)cc1 What is its recorded GLUCOSE?
Found: 173.17

Lookup: Consider the compound shown here: COc1ccc(C2C(=O)c3ccccc3C2=O)cc1 What is its recorded GLUCOSE?
Found: 192.67

Lookup: Consider the compound shown here: COc1cc2nc(N3CCN(C(=O)c4ccco4)CC3)nc(N)c2cc1OC What is its recorded GLUCOSE?
Found: 151.67

Lookup: Consider the compound shown here: CC(C(=O)O)c1ccc2oc(-c3ccc(Cl)cc3)nc2c1 (centres undefined) What is its recorded GLUCOSE?
Found: 173.67

###

# Species: Rattus norvegicus
# TEST_PROTOCOL: DrugMatrix - Regimen: Daily Repeat
# Type: toxicity, organism-based, Sprague-Dawley
# Design: regimen Daily Repeat, gender Male, age 6-8 weeks
# CONDITION_SUMMARY: in vivo, po, 10 mg/kg, 72 h, tissue Plasma, route oral GAVAGE, dose level Low, time 3 day, vehicle .5 % CMC
MEASURED_PROPERTY: BLOOD UREA NITROGEN (mg/dL)
State just the number; it will be interpreted in mg/dL.

Lookup: Consider the molecule shown here: Fc1ccc(C(c2ccc(F)cc2)N2CCN(C/C=C/c3ccccc3)CC2)cc1 What is its recorded BLOOD UREA NITROGEN?
Found: 18

Lookup: Consider the molecule shown here: O=C1C(CC[S+]([O-])c2ccccc2)C(=O)N(c2ccccc2)N1c1ccccc1 (centres undefined) What is its recorded BLOOD UREA NITROGEN?
Found: 15.33

Lookup: Consider the molecule shown here: O=C1CN=C(c2ccccc2Cl)c2cc([N+](=O)[O-])ccc2N1 What is its recorded BLOOD UREA NITROGEN?
Found: 17.67

Lookup: Consider the molecule shown here: CNCCC(Oc1ccc(C(F)(F)F)cc1)c1ccccc1 (centres undefined) What is its recorded BLOOD UREA NITROGEN?
Found: 15.67

###

# Species on record: Rattus norvegicus
# TEST_PROTOCOL: DrugMatrix - Regimen: Daily Repeat
# Assay type: toxicity, organism-based, Sprague-Dawley
# Set-up: regimen Daily Repeat, gender Male, age 6-8 weeks
# CONDITION_SUMMARY: in vivo, po, 0 mg/kg, 120 h, tissue Blood, route oral GAVAGE, dose level Control, time 5 day, vehicle .5 % CMC
What NEUTROPHIL was measured for each of the following?
State just the number; it will be interpreted in %.

Lookup: Consider the compound shown here: CN/C(=N/CCSCc1nc[nH]c1C)NC#N [CIMETIDINE] What is its recorded NEUTROPHIL?
Found: 8.83

Lookup: Consider the compound shown here: CCN(CC)CCOc1ccc(/C(=C(/Cl)c2ccccc2)c2ccccc2)cc1 [ENCLOMIPHENE] What is its recorded NEUTROPHIL?
Found: 8.33

Lookup: Consider the compound shown here: C[C@H]1O[C@@H](n2cc(F)c(=O)[nH]c2=O)[C@H](O)[C@@H]1O [DOXIFLURIDINE] What is its recorded NEUTROPHIL?
Found: 8.83

Lookup: Consider the compound shown here: CN(C)[C@@H]1C(O)=C(C(N)=O)C(=O)[C@@]2(O)C(O)=C3C(=O)c4c(O)ccc(Cl)c4[C@@](C)(O)[C@H]3C[C@@H]12 [CHLORTETRACYCLINE] What is its recorded NEUTROPHIL?
Found: 6.83

Lookup: Consider the compound shown here: CNCCC(Oc1ccc(C(F)(F)F)cc1)c1ccccc1 (stereo not drawn) [FLUOXETINE] What is its recorded NEUTROPHIL?
Found: 15

Lookup: Consider the compound shown here: COc1ccc(C2C(=O)c3ccccc3C2=O)cc1 [ANISINDIONE] What is its recorded NEUTROPHIL?
Found: 11

Lookup: Consider the compound shown here: O=C1C(CC[S+]([O-])c2ccccc2)C(=O)N(c2ccccc2)N1c1ccccc1 (stereo not drawn) [SULFINPYRAZONE] What is its recorded NEUTROPHIL?
Found: 8

Lookup: Consider the compound shown here: COc1cc2nc(N3CCN(C(=O)c4ccco4)CC3)nc(N)c2cc1OC [PRAZOSIN] What is its recorded NEUTROPHIL?
Found: 8
